molecular target: human 5-HT7 receptors (5-HT7a) (Homo sapiens); construct: expressed in transfected cells; assay: Radioligand competition binding ([3H]5-CT), HEK293 cells stably expressing human 5-HT7 receptors; conditions: Affinity Ki 5-HT7, our unreported observations
Sequence (P34969 1-445 isoform P34969-2): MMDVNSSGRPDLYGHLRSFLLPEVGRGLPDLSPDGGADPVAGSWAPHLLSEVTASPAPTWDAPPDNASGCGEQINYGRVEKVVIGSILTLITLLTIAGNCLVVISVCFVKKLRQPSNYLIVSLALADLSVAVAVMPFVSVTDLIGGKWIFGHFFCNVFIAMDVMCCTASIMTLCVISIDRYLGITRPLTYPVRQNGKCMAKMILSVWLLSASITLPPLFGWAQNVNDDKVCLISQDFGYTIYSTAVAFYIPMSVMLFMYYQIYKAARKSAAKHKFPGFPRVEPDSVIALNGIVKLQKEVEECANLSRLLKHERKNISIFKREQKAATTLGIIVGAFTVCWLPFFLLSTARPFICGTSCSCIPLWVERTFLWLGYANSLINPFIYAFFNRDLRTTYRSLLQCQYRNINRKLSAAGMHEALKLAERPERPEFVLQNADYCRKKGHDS
experimental_endpoint: Ki

Request: GET /values?readout=Ki&system=human 5-HT7 receptors (5-HT7a) (Homo sapiens)&item= COc1cc(CC(C)N)c(OC)cc1I (racemic) [DOI, (±)-2,5-dimethoxy-4-iodoamphetamine, reference compound]
Response: > 1000 nM

====

Molecular target: 5-HT2B (Homo sapiens)
Sequence (P41595 whole entry): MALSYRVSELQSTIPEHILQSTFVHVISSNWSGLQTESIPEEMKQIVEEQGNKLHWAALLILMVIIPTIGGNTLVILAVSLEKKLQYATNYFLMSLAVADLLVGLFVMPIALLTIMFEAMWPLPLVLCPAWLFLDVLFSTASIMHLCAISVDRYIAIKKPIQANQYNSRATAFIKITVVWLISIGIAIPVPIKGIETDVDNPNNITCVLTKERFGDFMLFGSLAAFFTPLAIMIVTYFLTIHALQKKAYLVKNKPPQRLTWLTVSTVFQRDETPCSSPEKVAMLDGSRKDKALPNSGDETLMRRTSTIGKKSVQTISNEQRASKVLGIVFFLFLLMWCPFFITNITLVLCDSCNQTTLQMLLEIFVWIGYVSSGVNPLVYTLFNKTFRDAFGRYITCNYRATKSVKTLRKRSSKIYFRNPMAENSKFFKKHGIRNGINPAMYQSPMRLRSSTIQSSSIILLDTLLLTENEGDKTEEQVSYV
Experiment: Receptor-mediated inositol phosphate hydrolysis, transfected HEK293 cells
Details: mean ± S.E.M.
Method: Functional responses of analog 7l and 5-HT (positive control agonist, data not shown) by measuring 5-HT2 and H1 receptor-mediated inositol phosphate hydrolysis were assessed. In brief, transiently transfected HEK293 cells were labeled with 1 μCi/ml [3H]myoinositol and seeded into 48-well plates. Cells were treated with test compounds for 30 minutes. The reaction was stopped by addition of 50 mM formic acid. […] 3H-induced scintillations then were measured. […]
experimental_endpoint: IC50 (nM)
Answers are plain numbers, in nM.

Request: GET /values?readout=IC50&system=5-HT2B (Homo sapiens)&item= COc1ccc2c(c1)[C@@H](c1cccc(Cl)c1)C[C@H](N(C)C)C2 (single isomer, unassigned) [Compound 7l]
Response: 51

====

Answer each item with its documented pEC50.
target: human 5-HT7 receptors (Homo sapiens, UniProt P34969); experiment: Functional assay, 5-HT7 Gs-cAMP signaling, relative to AS-19; conditions: Gs-cAMP signaling; mean (SEM)
Give bare numbers, as −log10 of the molar value.

CN(C)C1CCc2c(cccc2-c2ccccc2F)C1 (single isomer, unassigned; (+)) [(+)-5-FPT]: 7.47

With those in mind, consider the next molecule.
Request: Consider the molecule CN(C)C1CCc2c(cccc2-c2ccccc2F)C1 (single isomer, unassigned; (-)) [(−)-5-FPT] and give its measured pEC50.
Response: 6.42

====

target: 5-HT2A (Homo sapiens, UniProt P28223); experiment: Radioreceptor competitive binding, [3H]ketanserin (4-PAT series); settings: 2.0 nM [3H]ketanserin; HCl salts; read-out: Affinity (Ki ± SEM) 5-HT2A
Sequence (P28223 whole entry): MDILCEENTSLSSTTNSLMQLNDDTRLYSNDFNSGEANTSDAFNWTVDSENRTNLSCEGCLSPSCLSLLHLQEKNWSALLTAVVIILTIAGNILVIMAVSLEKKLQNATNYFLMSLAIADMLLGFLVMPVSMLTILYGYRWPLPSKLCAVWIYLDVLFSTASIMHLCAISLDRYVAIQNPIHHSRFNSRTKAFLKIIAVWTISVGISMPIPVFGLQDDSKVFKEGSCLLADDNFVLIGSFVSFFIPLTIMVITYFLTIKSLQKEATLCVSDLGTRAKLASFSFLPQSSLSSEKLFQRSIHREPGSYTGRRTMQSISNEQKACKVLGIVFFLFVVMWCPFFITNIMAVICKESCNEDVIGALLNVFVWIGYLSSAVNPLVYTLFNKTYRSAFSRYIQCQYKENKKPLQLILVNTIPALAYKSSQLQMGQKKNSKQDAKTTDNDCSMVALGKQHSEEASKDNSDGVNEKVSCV
experimental_endpoint: Ki (nM)
One number for each entry, in nM.

Please review the entries below; each comes with its answer.
CN(C)[C@@H]1Cc2cc(Cl)c(O)cc2[C@@H](c2ccccc2)C1 (single isomer, unassigned) [Compound 7m]: 70
COc1cc2c(cc1Cl)C[C@@H](N(C)C)C[C@@H]2c1ccccc1 (single isomer, unassigned): 160
COc1cc2c(cc1Cl)C[C@@H](N(C)C)C[C@@H]2c1cccc(Br)c1 (single isomer, unassigned) [Compound 7i]: 79
COc1cc2c(cc1Cl)CC(N(C)C)CC2c1cccc(Cl)c1 (single isomer, unassigned) [Compound 7f]: 50
COc1cc2c(cc1Cl)C[C@@H](N(C)C)C[C@H]2c1ccccc1 (single isomer, unassigned) [Compound 7c]: 2300
COc1cc2c(cc1Cl)C[C@@H](N(C)C)C[C@@H]2c1cccc(Br)c1 (single isomer, unassigned) [Compound 7j]: 61

Request: GET /values?readout=Ki&system=5-HT2A (Homo sapiens, UniProt P28223)&item= COc1ccc2c(c1)[C@@H](c1cccc(Cl)c1)C[C@H](N(C)C)C2 (single isomer, unassigned) [Compound 7l]
Response: 35
